# System: RARg homodimer (NR concentration 270 nM)
# test: PBM binding z-score (relative to random genomic background probes); higher = stronger binding; sequences stand for … in GC…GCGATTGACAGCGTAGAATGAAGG
The label depends only on PBM binding z-score: 1 (yes) if it is at least 3, 0 (no) if it is smaller.

Use these answered entries as a reference point.
seq.text	target.under.test	assigned.class
ATCGAAAGGTCGAAGGTGAGTACACCCACCCGAA	RARg homodimer (NR concentration 270 nM)	1 (yes)
ATATGTAGGTTAGGGTCATTCACAAAGTAGGGAA	RARg homodimer (NR concentration 270 nM)	1 (yes)
TCGAGTAGGTTACGAGGGCATTCAGGGATGAAGA	RARg homodimer (NR concentration 270 nM)	0 (no)
ACTAGCAGGCCAAAGGTCACTCAAGATTAGTCCG	RARg homodimer (NR concentration 270 nM)	1 (yes)
AGAATGGGGTTAAGATCAGGGAAACAGAATACAT	RARg homodimer (NR concentration 270 nM)	0 (no)
CGTGCAAGGTCAGAGAGGTCAGTGAATGCCGAGT	RARg homodimer (NR concentration 270 nM)	1 (yes)

Exercise: # bool: PBM binding z-score of CGTCCGAGGTCAAAGGTCAGTGAAGAGATGACGG >= 3
Solution: 1 (yes)

Exercise: # bool: PBM binding z-score of ATATGTAGGTCAGGGTCATTCAGAAAGTAGGGAA >= 3
Solution: 1 (yes)
